Assay Remarks: Selectivity index, ratio of IC50 for rat L6 cells to IC50 for chloroquine-resistant Plasmodium falciparum K1
Type: toxicity, cell-based
Test Parameters: read-out: Ratio IC50
# selectivity ratio listing for each entry below
Form rule: numeric answer, no unit written next to it.

Answered cases to consult:
Line Notation	Parameter	Meas Value
N/C(=N\O)c1ccc(OCCCCCOc2ccc(/C(N)=N\O)cn2)nc1	selectivity ratio	3
N=C(N)c1ccc(OCCCCCOc2ccc(C(=N)N)cn2)nc1	selectivity ratio	416
c1cc(OCCCCCOc2cccc(C3=NCCN3)n2)nc(C2=NCCN2)c1	selectivity ratio	26
N/C(=N\O)c1cccc(OCCCCCOc2cccc(/C(N)=N/O)n2)n1	selectivity ratio	5
c1cc(C2=NCCN2)ncc1OCCCCCOc1ccc(C2=NCCN2)nc1	selectivity ratio	2290

Summary for this molecule, c1cc(OCCCCCOc2ccnc(C3=NCCN3)c2)cc(C2=NCCN2)n1 : selectivity ratio is 19

* * *

Assay Remarks: Selectivity index, ratio of IC50 for rat L6 cells to IC50 for bloodstream Trypanosoma brucei rhodesiense STIB900
Type: toxicity, cell-based
Test Parameters: read-out: Ratio IC50
Values of selectivity ratio strictly less than 6 map to TRUE, and values of at least 6 map to FALSE.

Line Notation	Class
c1cc(OCCCCCOc2cccc(C3=NCCN3)n2)nc(C2=NCCN2)c1	TRUE
N=C(N)c1ccc(OCCCCCOc2ccc(C(=N)N)nc2)cn1	FALSE
N=C(N)c1cccc(OCCCCCOc2cccc(C(=N)N)n2)n1	FALSE
N/C(=N\O)c1cccc(OCCCCCOc2cccc(/C(N)=N/O)n2)n1	TRUE

# next compound below
Could you please tell me whether selectivity ratio recorded for N/C(=N\O)c1ccc(OCCCCCOc2ccc(/C(N)=N\O)cn2)nc1 is less than 6?
TRUE

* * *

Assay Remarks: Selectivity index, ratio of IC50 for rat L6 cells to IC50 for bloodstream Trypanosoma brucei rhodesiense STIB900
Assay type: toxicity, cell-based
Test Parameters: read-out: Ratio IC50
Parameter: selectivity ratio
Form rule: numeric answer, no unit written next to it.

Answered cases to consult:
Line Notation	selectivity ratio
c1cc(C2=NCCN2)ncc1OCCCCCOc1ccc(C2=NCCN2)nc1	484
CO/N=C(\N)c1cc(OCCCCCOc2ccnc(/C(N)=N/OC)c2)ccn1	8
CC(C)NC(=N)c1ccc(OCCCCCOc2ccc(C(=N)NC(C)C)nc2)cn1	4350
c1cc(OCCCCCOc2ccc(C3=NCCN3)cn2)ncc1C1=NCCN1	78
N=C(N)c1cc(OCCCCCOc2ccnc(C(=N)N)c2)ccn1	1160
N/C(=N\O)c1cc(OCCCCCOc2ccnc(/C(N)=N/O)c2)ccn1	13
N/C(=N/O)c1ccc(OCCCCCOc2ccc(/C(N)=N\O)nc2)cn1	2

Now look at this one.
Summary for this molecule, N=C(N)c1ccc(OCCCCCOc2ccc(C(=N)N)cn2)nc1 : selectivity ratio is 1960

* * *

System: L6
Assay Remarks: Cytotoxicity against rat L6 cells after 70 hrs by alamar blue assay
Format: cell-based
Test Parameters: L6, 70 h
Parameter: pIC50
The scale used: pIC50 is minus the common logarithm of the concentration in molar units.

Answered cases to consult:
Line Notation	pIC50
CO/N=C(\N)c1cc(OCCCCCOc2ccnc(/C(N)=N/OC)c2)ccn1	3.86
c1cc(OCCCCCOc2ccc(C3=NCCN3)cn2)ncc1C1=NCCN1	3.95
CO/N=C(/N)c1ccc(OCCCCCOc2ccc(/C(N)=N\OC)nc2)cn1	4.40

Summary for this compound, N=C(N)c1cc(OCCCCCOc2ccnc(C(=N)N)c2)ccn1 : pIC50 is 4.23

Summary for this compound, CC(C)NC(=N)c1ccc(OCCCCCOc2ccc(C(=N)NC(C)C)nc2)cn1 : pIC50 is 3.83

Summary for this compound, N/C(=N\O)c1ccc(OCCCCCOc2ccc(/C(N)=N\O)cn2)nc1 : pIC50 is 4.79

Numbers sourced from ChEMBL document CHEMBL1158484.
